Reference source for all entries: PubChem BioAssay (NCI)

Answer each item with its documented TGI.
- Tested on: IGROV1 ovarian
- experimentalProtocol: NCI tumour cell line growth inhibition, 48 h
One number for each entry, in µM.

# compound, systemUnderTest, TGI, µM
measured = [
    ("COc1ccccc1/C=C1\\CCC(CN(C)C)C1=O (stereo unspecified)", "IGROV1 ovarian", 32.7),
    ("CC(Br)C(=O)c1ccc2cc(Br)c3ccccc3c2c1 (stereo unspecified)", "IGROV1 ovarian", 26.3),
    ("Oc1c(Cl)ccc2cccnc12", "IGROV1 ovarian", 1.86),
]

Dear colleague, could you send me TGI for each of the items below? Thanks.
1. CCN(CC)CC(O)CNc1ccc(NCC(O)CCl)c2c1C(=O)c1ccccc1C2=O (stereo unspecified)
2. C[C@]1(O)CC(=O)c2c(c(-c3ccc4cc5c(c(O)c4c3O)C(=O)C[C@@](C)(O)C5)c3cccc(O)c3c2O)C1

## Result
[25.5, 22.8]

* * *

- System: MDA-MB-435
- experimentalProtocol: NCI tumour cell line growth inhibition, 48 h
measureName: TGI

# molecule, TGI
data = [
    ("Nc1ccccc1C#Cc1ccccc1C#Cc1ccccc1N", "4.39 µM"),
]

Dear colleague, could you send me TGI for each of the items below? Thanks.
1. COC(OC)C1(c2ccccc2)Oc2ccccc2C1=O (stereo unspecified)
2. O=C(O[C@H]1CN[C@H](C#Cc2cc3ncnc(Nc4ccc(Cc5ccccc5)cc4)c3s2)C1)N1CCOCC1
3. COc1cc(C2=Nc3c/c(=C\c4c(O)[nH]c5ccc(Cl)cc45)ccc3=N2)cc(OC)c1OC
4. C/C(=C/CNc1ncnc2c1ncn2CCC(=O)O)CO
5. O=[N+]([O-])c1nccn1CCCN=c1c2ccccc2n(O)c2ccccc12

## Result
1. > 100 µM
2. > 22.5 µM
3. 3.86 µM
4. > 100 µM
5. > 100 µM

* * *

- Tested on: UO-31 renal
- experimentalProtocol: NCI tumour cell line growth inhibition, 48 h
Answer each item with its documented TGI.

The examples below pair each entry with its known result.
# compound, TGI
data = [
    ("O=C1CCCCC1C1(O)C(=O)Nc2cc(F)ccc21 (configuration not stated)", "> 100 µM"),
    ("CSc1nc2nc(C)c(C)nc2c(=O)[nH]1", "> 100 µM"),
    ("CC12Oc3ccc4ccccc4c3C1c1c(ccc3ccccc13)O2 (configuration not stated)", "> 100 µM"),
    ("Cn1c2c(c3c(=O)[nH]ncc31)CCc1ccccc1-2", "59.1 µM"),
]

Dear colleague, could you send me TGI for each of the items below? Thanks.
1. O=C(c1ccc(F)c(F)c1Nc1ccc(I)cc1F)N1CC(O)([C@H]2CCCCN2)C1
2. N#Cc1cc(-c2ccccc2)[nH]c1-c1nccc2ccccc12

## Result
["13.9 µM", "> 100 µM"]

* * *

Answer each item with its documented TGI.
- System: T-47D breast
- experimentalProtocol: NCI tumour cell line growth inhibition, 48 h

# molecule, systemUnderTest, val
data = [
    ("NCC(=O)Nc1ccc(-n2nc(C(F)(F)F)cc2-c2ccc3c(ccc4ccccc43)c2)cc1", "T-47D breast", "3 µM"),
    ("COc1cc(O)c2c(=O)c3ccccc3n(C)c2c1", "T-47D breast", "> 100 µM"),
    ("COc1cccc(C2=NN(C(C)=O)C(c3cc(OC)c(OC)c(OC)c3)C2)c1 (stereo not given)", "T-47D breast", "> 100 µM"),
    ("C[C@@]12CCC[C@@](C)(C(=O)O)C1CC[C@]13C=C(CO)[C@](O)(CCC12)C3 (stereo not given in full)", "T-47D breast", "> 100 µM"),
    ("CC(=O)OC[C@@]12CC[C@H]3C(C)(C)CCC[C@]3(C)[C@H]1C[C@@H](C1=CC(=O)O[C@H]1O)O2", "T-47D breast", "8.67 µM"),
]

Dear colleague, could you send me TGI for each of the items below? Thanks.
1. CC(C)(C)OC(=O)N1C[C@H](CC(=O)OCc2ccccc2)C[C@H]1C(=O)OCC(Cl)(Cl)Cl
2. O=C(Nc1cccnc1)c1cccs1
3. C#CCn1c(=O)c(C)cn(/C(=C/C(=O)OCC)C(=O)OCC)c1=O
4. CCOP(=O)(OCC)/C(=C/c1ccccc1)CC(C)=O
5. CNC(=S)NNC1=NCCCN1

## Result
["> 50 µM", "> 100 µM", "20.3 µM", "> 100 µM", "> 100 µM"]
